CC50 listing for selected compounds.
test: in vitro; settings: African green monkey

[ask] Given the entry CN1CCN(C(=S)Nc2ccc(Cl)c(Cl)c2)CC1 , report its measured CC50.
[reply] 50 µM

[ask] Given the entry CN1CCN(C(=O)Nc2ccc(Cl)c(Cl)c2)CC1 , report its measured CC50.
[reply] > 50 µM

----------
tested on: Guanarito virus; assay: microbe, parasite or virus in culture; assay type: cell-based; settings: Mammarenavirus guanaritoense, Vero, 120 h, read-out: EC50 Category A NWA, Guanarito
READOUT KIND: pEC50
Friendly reminder that pEC50 comes from taking -log10 of the concentration in mol/L.

[ask] Given the entry CN1CCN(C(=S)Nc2ccc(Cl)c(Cl)c2)CC1 , report its measured pEC50.
[reply] 6.82

----------
test system: Vero cells; settings: African green monkey
READOUT KIND: CC50

[ask] Given the entry CN1CCN(C(=O)Nc2ccc(Cl)c(Cl)c2)CC1 , report its measured CC50.
[reply] > 50 µM
